The reader will find reported growth values listed item by item below.
test system: UACC-257 melanoma; assay: NCI-60 one-dose screen, 48 h (100 = growth as untreated, 0 = no growth, -100 = all killed); conditions: 10 µM
This is part of a sample that, as a whole, favours compounds with a hit. Of some 83,000 tested, about 20% had one in any assay.
Write the value in % as a bare number.

Solved cases (3 shown):
[[record]]
compound = "CCCCCCCCCCCCCC(=O)Oc1ccc[nH]c1=O"
study_target = "UACC-257 melanoma"
value_units = "%"
reading = 84.3

[[record]]
compound = "C#CC(C(C)C)N(CCO)CCCC (stereo not drawn)"
study_target = "UACC-257 melanoma"
value_units = "%"
reading = 97.4

[[record]]
compound = "CCOC(=O)c1ccc(NC(=S)P(=O)(c2ccccc2)c2ccccc2)cc1"
study_target = "UACC-257 melanoma"
value_units = "%"
reading = 108


Query block: Hello, I am looking for reported growth with UACC-257 melanoma for O=C1C=C(O)C(=O)C=C1O . Could you help?
Result block: 107

Query block: Moving on to Cc1ccc(Cl)cc1N1C(=O)CC(Sc2ccccc2N)C1=O (stereo not drawn)
Result block: 88.4

Query block: Moving on to CC(=O)OCCC(C)CCC=C(C)C (stereo not drawn)
Result block: 106

Query block: Moving on to CCN(CC)CCNc1ccc(CO)c2sc3ccccc3c(=O)c12
Result block: 11.6

Query block: Moving on to O=C(O)/C=C/c1ccc2c(c1)CCC2
Result block: 97.8
